pIC50: −log10 of the molar value.
Recorded pIC50 for compounds tested on NUAK1 (Homo sapiens, UniProt O60285), drawn from a number of studies.
Sequence (O60285 whole entry): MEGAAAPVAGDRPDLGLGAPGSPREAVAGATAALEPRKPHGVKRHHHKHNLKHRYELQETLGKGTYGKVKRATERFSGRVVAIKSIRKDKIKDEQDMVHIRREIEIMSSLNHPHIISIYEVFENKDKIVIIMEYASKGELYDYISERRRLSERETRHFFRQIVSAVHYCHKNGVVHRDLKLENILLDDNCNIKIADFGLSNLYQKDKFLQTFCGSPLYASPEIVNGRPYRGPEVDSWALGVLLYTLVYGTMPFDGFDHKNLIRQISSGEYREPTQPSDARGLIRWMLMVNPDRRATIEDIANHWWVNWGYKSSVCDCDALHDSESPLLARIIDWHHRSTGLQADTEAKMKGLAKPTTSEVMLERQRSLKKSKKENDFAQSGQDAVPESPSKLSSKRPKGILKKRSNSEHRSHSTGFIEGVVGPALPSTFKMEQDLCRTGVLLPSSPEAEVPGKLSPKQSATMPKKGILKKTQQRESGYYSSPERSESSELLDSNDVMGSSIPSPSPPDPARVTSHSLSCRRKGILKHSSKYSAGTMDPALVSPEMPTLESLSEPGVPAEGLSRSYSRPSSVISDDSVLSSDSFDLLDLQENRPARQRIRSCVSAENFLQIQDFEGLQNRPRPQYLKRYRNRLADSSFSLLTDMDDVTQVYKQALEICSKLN

Previously resolved entries follow.
compound | value-observed
O=C1NCc2cccc(Nc3nc(Nc4ccc(N5C[C@H]6CNC[C@H]6C5)cc4OC(F)F)ncc3C(F)(F)F)c21 | 7.00 to 7.96
CSc1n[nH]c2c1NC(c1c(F)cccc1F)=Nc1ccc(C)cc1-2 | 6.00 to 7.00
CC(C)(C)NC(=O)c1cc2c(cc1Cl)-c1n[nH]cc1N=C(c1c(F)cccc1F)N2 | 6.00 to 7.00

## Task Name the recorded pIC50 for NC(=O)c1nn(-c2c(Cl)ccc(F)c2Cl)cc1Nc1ccc(C(=O)N2CCOCC2)cc1 .
## Result 6.00 to 7.00

## Task Name the recorded pIC50 for Cc1ccc2c(c1)-c1[nH]ncc1N=C(c1c(C)cccc1F)N2 .
## Result 6.00 to 7.00

## Task Name the recorded pIC50 for CC(C)Oc1ccc2c(c1)NC(c1c(F)cccc1F)=Nc1cn[nH]c1-2 .
## Result 6.00 to 7.00

====

Recorded IC50 for compounds tested on NUAK1 (Homo sapiens), drawn from a number of studies.

compound | assay-system | value-observed
FC(F)Oc1ccc2c(c1)-c1[nH]ncc1N=C(c1c(Cl)cccc1Cl)N2 | NUAK1 (Homo sapiens) | 100 to 1000 nM
Cn1cc(Nc2cn(-c3c(F)cccc3Cl)nc2C(N)=O)cn1 | NUAK1 (Homo sapiens) | 100 to 1000 nM
CN(C)[C@H]1CCN(C(=O)c2ccc(Nc3nn(-c4c(Cl)cccc4Cl)nc3C(N)=O)cc2)C1 | NUAK1 (Homo sapiens) | 100 to 1000 nM
CC(C)Oc1cc2c(cc1F)-c1n[nH]cc1N=C(c1c(F)cccc1Cl)N2 | NUAK1 (Homo sapiens) | 10 to 100 nM
NC(=O)c1nn(-c2c(Cl)cccc2Cl)cc1Nc1ccc(C(=O)N2CCC(N)C2)cc1 (centres unmarked) | NUAK1 (Homo sapiens) | 100 to 1000 nM
CN1CCN(c2ccc(Nc3ncc(Cl)c(Nc4cccc5c4C(=O)NC5)n3)c(OC(F)(F)F)c2)CC1 | NUAK1 (Homo sapiens) | 101 to 1000 nM

## Task Name the recorded IC50 for O=C1NCc2cccc(Nc3nc(Nc4ccc(N5CCNCC5)cc4OC(F)F)ncc3C(F)(F)F)c21 .
## Result 11 to 100 nM

## Task Name the recorded IC50 for NC(=O)c1nn(-c2c(Cl)cccc2Cl)cc1Nc1ccc(C(=O)N2CC[C@@H](N3CCCC3)C2)cc1 .
## Result 100 to 1000 nM

## Task Name the recorded IC50 for O=C(NC1CCOCC1)c1ccc2c(n1)N=C(c1c(F)cccc1F)Nc1cn[nH]c1-2 .
## Result 100 to 1000 nM

## Task Name the recorded IC50 for Fc1cc2c(cc1-c1cccnn1)N=C(c1c(Cl)cccc1Cl)Nc1c[nH]nc1-2 .
## Result 100 to 1000 nM

## Task Name the recorded IC50 for Fc1cccc(F)c1C1=Nc2c(Br)n[nH]c2-c2ccccc2N1 .
## Result 10 to 100 nM

## Task Name the recorded IC50 for NC(=O)c1nn(-c2c(F)cccc2Cl)cc1Nc1ccc(C(=O)NC2CCCNC2)cc1 (centres unmarked) .
## Result 10 to 100 nM

## Task Name the recorded IC50 for Cc1ccc2c(c1)-c1[nH]nc(Cl)c1NC(c1c(F)cccc1F)=N2 .
## Result 10 to 100 nM

## Task Name the recorded IC50 for Nc1ncc2c(n1)N=C(c1c(F)cccc1F)Nc1c[nH]nc1-2 .
## Result 10 to 100 nM

## Task Name the recorded IC50 for NC(=O)c1nn(-c2c(Cl)cccc2Cl)nc1Nc1ccc(C(=O)N2CC[C@@H](F)C2)cc1 .
## Result 100 to 1000 nM

## Task Name the recorded IC50 for COc1ccc2c(c1)-c1[nH]ncc1N=C(c1c(F)cccc1Cl)N2 .
## Result 100 to 1000 nM

## Task Name the recorded IC50 for Fc1cccc(Cl)c1C1=Nc2cnc(C(F)(F)F)cc2-c2[nH]ncc2N1 .
## Result 100 to 1000 nM

## Task Name the recorded IC50 for Cc1ccnnc1-c1ccc(Nc2cn(-c3c(F)cccc3F)nc2C(N)=O)cc1 .
## Result 100 to 1000 nM

## Task Name the recorded IC50 for Cc1ccc2c(c1)-c1n[nH]cc1NC(c1c(F)ccc(C)c1F)=N2 .
## Result 10 to 100 nM

====

Recorded IC50 for compounds tested on NUAK1 (Homo sapiens, UniProt O60285), drawn from a number of studies.

Previously resolved entries follow.
input-smiles | endpoint-name | value-observed
NC(=O)c1nn(-c2c(Cl)cccc2Cl)cc1Nc1cnc(C(=O)N2CC[C@@H](F)C2)cn1 | IC50 | 0.1 to 1 µM
Fc1cccc(F)c1C1=Nc2cn[nH]c2-c2cnn3c2N1CCC3 | IC50 | 0.01 to 0.1 µM
Fc1cccc(F)c1C1=Nc2c(Cl)n[nH]c2-c2cc(Cl)ncc2N1 | IC50 | 0.01 to 0.1 µM

## Task Name the recorded IC50 for NC(=O)c1nn(-c2c(F)cccc2F)cc1Nc1ccc(C(=O)NCC(F)(F)F)cc1 .
## Result 0.01 to 0.1 µM

====

Recorded IC50 for compounds tested on NUAK1 (Homo sapiens, UniProt O60285), drawn from a number of studies.

input-smiles | value-observed
Fc1cccc(F)c1C1=Nc2cn[nH]c2-c2cn[nH]c2N1 | 0.01 to 0.1 µM

## Task Kindly state the measured IC50 obtained for N#Cc1cccc(F)c1-n1cc(Nc2ccc(C(=O)N3CCS(=O)(=O)CC3)cc2)c(C(N)=O)n1 with NUAK1 (Homo sapiens, UniProt O60285).
## Result 0.1 to 1 µM

## Task Kindly state the measured IC50 obtained for NC(=O)c1nn(-c2c(Cl)cccc2Cl)cc1Nc1cn[nH]c1 with NUAK1 (Homo sapiens, UniProt O60285).
## Result 0.1 to 1 µM

## Task Kindly state the measured IC50 obtained for CCN1CCN(c2ccc(Nc3ncc(C(F)(F)F)c(Nc4cccc5c4C(=O)NC5)n3)c(OC(F)F)c2)CC1 with NUAK1 (Homo sapiens, UniProt O60285).
## Result 0.011 to 0.1 µM

====

pIC50: −log10 of the molar value.
Recorded pIC50 for molecules tested on UniProt:O60285, drawn from a number of studies.

Previously resolved entries follow.
molecule | pIC50
Fc1ccccc1-c1ccc2c(c1)N=C(c1c(F)cccc1Cl)Nc1c[nH]nc1-2 | > 8.00
COc1cc2c(cc1Nc1ncc(Cl)c(Nc3cccc4c3C(=O)NC4)n1)CN(C)CC2 | 6.00 to 7.00

## Task Kindly state the measured pIC50 obtained for Fc1cccc(-c2ccc3c(c2)N=C(c2c(Cl)cccc2Cl)Nc2c[nH]nc2-3)c1 with UniProt:O60285.
## Result 6.00 to 7.00

## Task Kindly state the measured pIC50 obtained for C[C@@H]1CN(c2ccc(Nc3ncc(C(F)(F)F)c(Nc4cccc5c4C(=O)NC5)n3)c(OC(F)F)c2)CCN1 with UniProt:O60285.
## Result 7.00 to 7.96

## Task Kindly state the measured pIC50 obtained for COc1ccc2c(c1)-c1[nH]ncc1N=C(c1c(F)cccc1F)N2 with UniProt:O60285.
## Result 6.00 to 7.00

## Task Kindly state the measured pIC50 obtained for NC(=O)c1nn(-c2c(F)cccc2Cl)cc1Nc1ccc(C(=O)N2CCOCC2)cn1 with UniProt:O60285.
## Result 6.00 to 7.00

====

Recorded IC50 for compounds tested on UniProt:O60285, drawn from a number of studies.

Previously resolved entries follow.
input-smiles | IC50
Cc1cc(F)c2c(c1)-c1[nH]nc(Cl)c1NC(c1c(F)cccc1F)=N2 | 10 to 100 nM
Fc1cccc(F)c1C1=Nc2cn[nH]c2-c2cc(Cl)ncc2N1 | 10 to 100 nM
CCn1ccnc1-c1ccc(Nc2cn(-c3c(Cl)cccc3Cl)nc2C(N)=O)cc1 | 100 to 1000 nM
Cc1ccn(-c2ccc(Nc3cn(-c4c(F)cccc4Cl)nc3C(N)=O)cc2)n1 | 100 to 1000 nM
CC(C)n1cnnc1-c1ccc(Nc2cn(-c3c(Cl)cccc3Cl)nc2C(N)=O)cc1 | 100 to 1000 nM

## Task Name the recorded IC50 for Fc1cc2c(cc1OC1CCOCC1)N=C(c1c(F)cccc1C(F)(F)F)Nc1c[nH]nc1-2 .
## Result 100 to 1000 nM

## Task Name the recorded IC50 for O=C1NCc2cccc(Nc3nc(Nc4cc5c(cc4Cl)CNCC5)ncc3C(F)(F)F)c21 .
## Result 11 to 100 nM

## Task Name the recorded IC50 for NC(=O)c1nn(-c2c(Cl)cccc2Cl)nc1Nc1ccc(-c2nnn[nH]2)cc1 .
## Result 100 to 1000 nM
